Reported kinase still bound, per cent of control values for the following compounds.
molecular target: BMP2K (human) (UniProt Q9NSY1); assay: KINOMEscan competition binding; conditions: compound 10.0 µM
Sequence (Q9NSY1 whole entry, looked up): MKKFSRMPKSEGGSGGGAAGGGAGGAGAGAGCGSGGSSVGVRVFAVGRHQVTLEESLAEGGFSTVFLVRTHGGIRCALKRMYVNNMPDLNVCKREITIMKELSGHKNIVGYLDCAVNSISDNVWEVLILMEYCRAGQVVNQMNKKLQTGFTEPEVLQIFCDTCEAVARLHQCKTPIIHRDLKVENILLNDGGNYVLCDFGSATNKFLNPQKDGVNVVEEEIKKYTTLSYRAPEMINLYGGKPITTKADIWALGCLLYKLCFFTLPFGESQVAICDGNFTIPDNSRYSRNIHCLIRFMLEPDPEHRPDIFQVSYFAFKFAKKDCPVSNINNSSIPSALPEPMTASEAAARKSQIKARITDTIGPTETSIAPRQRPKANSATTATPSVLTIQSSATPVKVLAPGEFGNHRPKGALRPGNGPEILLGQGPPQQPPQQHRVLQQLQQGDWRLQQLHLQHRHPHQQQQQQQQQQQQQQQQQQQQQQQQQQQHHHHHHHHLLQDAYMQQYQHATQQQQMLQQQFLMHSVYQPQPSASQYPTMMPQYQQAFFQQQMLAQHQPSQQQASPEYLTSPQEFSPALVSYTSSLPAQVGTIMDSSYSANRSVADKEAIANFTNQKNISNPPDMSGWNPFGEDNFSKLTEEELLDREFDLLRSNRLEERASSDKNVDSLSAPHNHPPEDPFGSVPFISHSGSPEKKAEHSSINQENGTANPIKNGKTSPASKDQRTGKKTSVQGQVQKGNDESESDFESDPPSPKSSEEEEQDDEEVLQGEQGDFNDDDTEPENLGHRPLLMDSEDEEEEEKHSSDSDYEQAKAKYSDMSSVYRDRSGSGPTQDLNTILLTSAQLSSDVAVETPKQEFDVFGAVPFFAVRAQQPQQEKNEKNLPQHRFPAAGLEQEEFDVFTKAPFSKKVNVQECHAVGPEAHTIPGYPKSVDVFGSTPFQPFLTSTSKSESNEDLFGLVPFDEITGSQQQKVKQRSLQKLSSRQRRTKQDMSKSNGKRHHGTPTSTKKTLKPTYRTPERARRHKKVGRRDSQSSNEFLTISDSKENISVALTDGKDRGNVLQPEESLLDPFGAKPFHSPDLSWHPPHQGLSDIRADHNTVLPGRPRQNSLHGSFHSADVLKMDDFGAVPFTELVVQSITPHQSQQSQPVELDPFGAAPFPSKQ
Provide only the numeric value, understood in %.

Some solved cases for reference:
| compound | unit tag | kinase still bound, per cent of control |
| --- | --- | --- |
| Nc1cccc(-c2cc(/C=C3\SC(=O)NC3=O)c[nH]c2=O)c1 | % | 1 |
| O=C1NC(=S)S/C1=C\c1ccc(-c2cncc3ccccc23)o1 | % | 0.4 |
| CN1CCN(c2ccc(C(=O)Nc3ncc4c(n3)N(C)c3ccccc3C(=O)N4C)cc2)CC1 | % | 100 |
| CN1C(=O)[C@H]2CCC[C@H]2N(C2CCCC2)c2nc(Nc3ccc4ncccc4c3)ncc21 | % | 2.1 |
| NS(=O)(=O)c1ccc(-c2ccc(/C=C3\C(=O)Nc4ccccc43)o2)cc1 | % | 7.7 |
| COc1cc(N2CCN(C)CC2)ccc1Nc1ncc2c(n1)N1CCC[C@H]1CC(=O)N2 | % | 29 |
| CN1C(=O)[C@H]2CCC[C@H]2N(C2CCCC2)c2nc(Nc3ccc(C(N)=O)cc3)ncc21 | % | 12 |
| COc1cc(N2CCN(C)CC2)ccc1Nc1ncc2c(n1)N(c1ccccc1)CCC(=O)N2 | % | 15 |

Task item: For CSC1=NC(=O)/C(=C/c2c[nH]c(=O)c(-c3ccc(NS(C)(=O)=O)cc3)c2)S1 , write its kinase still bound, per cent of control.
Reply: 2

Task item: For CN1C(=O)c2ccccc2N(C)c2nc(NS(=O)(=O)c3ccc(N)cc3)ncc21 , write its kinase still bound, per cent of control.
Reply: 100

Task item: For N=C1NC(=O)/C(=C/c2ccc(-c3ccccc3O)o2)S1 , write its kinase still bound, per cent of control.
Reply: 14

* * *

target: STK33 (human); experiment: KINOMEscan competition binding; conditions: compound 10.0 µM
readout type: kinase still bound, per cent of control (%)
Provide only the numeric value, understood in %.

Some solved cases for reference:
| compound | kinase still bound, per cent of control, % |
| --- | --- |
| COc1cc(N2CCN(CCO)CC2)ccc1Nc1ncc2c(n1)N(C1CCCC1)CCC(=O)N2C | 7.2 |
| COc1cc(C(=O)NC2CCN(C)CC2)ccc1Nc1ncc2c(n1)N(C1CCCC1)[C@@H]1CCC[C@@H]1C(=O)N2C | 11 |
| COc1cc(N2CCC(O)CC2)ccc1Nc1ncc2c(n1)N1CCc3cccc(c31)C(=O)N2C | 3.3 |

Task item: For O=C1NC(=O)/C(=C/c2c[nH]c(=O)c(-c3ccc(N4CCNCC4)nc3)c2)S1 , write its kinase still bound, per cent of control.
Reply: 2.7

Task item: For CCN1C(=O)CC(C(C)C)N(C2CCCC2)c2nc(Nc3ccc(C(=O)NC4CCN(C)CC4)cc3OC)ncc21 (centres undefined) , write its kinase still bound, per cent of control.
Reply: 31

Task item: For COc1cc(N2CCN(C)CC2)ccc1Nc1ncc2c(n1)N(C)c1ccccc1C(=O)N2C , write its kinase still bound, per cent of control.
Reply: 8.8

* * *

target: UniProt P78356; experiment: KINOMEscan competition binding; conditions: compound 10.0 µM
Sequence (P78356 whole entry, looked up): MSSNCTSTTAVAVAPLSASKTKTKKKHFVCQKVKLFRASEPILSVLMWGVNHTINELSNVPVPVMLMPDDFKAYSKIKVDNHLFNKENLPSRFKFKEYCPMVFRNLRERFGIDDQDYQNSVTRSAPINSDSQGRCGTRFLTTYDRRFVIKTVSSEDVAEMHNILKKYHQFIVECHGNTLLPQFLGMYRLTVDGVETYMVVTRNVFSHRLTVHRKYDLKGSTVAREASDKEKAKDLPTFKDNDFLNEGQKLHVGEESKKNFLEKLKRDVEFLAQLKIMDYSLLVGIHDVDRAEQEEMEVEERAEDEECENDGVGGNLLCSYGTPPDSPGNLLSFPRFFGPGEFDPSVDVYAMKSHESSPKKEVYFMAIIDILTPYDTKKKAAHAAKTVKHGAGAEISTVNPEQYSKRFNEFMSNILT
readout type: kinase still bound, per cent of control (%)
Provide only the numeric value, understood in %.

Task item: For N=C1NC(=O)/C(=C/c2ccc(-c3ccc(C(=O)Nc4ccc(N5CCNCC5)cc4)cc3O)o2)S1 , write its kinase still bound, per cent of control.
Reply: 34

Task item: For N=C1NC(=O)/C(=C/c2ccc(-c3cnc4ccccc4c3)o2)S1 , write its kinase still bound, per cent of control.
Reply: 20

Task item: For N=C1NC(=O)/C(=C/c2ccc(-c3ccccc3O)o2)S1 , write its kinase still bound, per cent of control.
Reply: 28

Task item: For COc1cc(N2CCN(C)CC2)ccc1Nc1ncc2c(n1)N(C)c1sccc1C(=O)N2C , write its kinase still bound, per cent of control.
Reply: 89

Task item: For CN1C(=O)c2ccccc2N(C)c2nc(Nc3ccc(N4CCC(O)CC4)cc3)ncc21 , write its kinase still bound, per cent of control.
Reply: 75

Task item: For O=C1NC(=S)S/C1=C\c1ccc(-c2cncc3ccccc23)o1 , write its kinase still bound, per cent of control.
Reply: 5.5
